Molecular target: T1, BCMA on cells, species not stated (Homo sapiens (Human), UniProt Q02223 1-184)
T1 construct: also called BCMA cells; 3T3 BCMA cells
T1 sequence: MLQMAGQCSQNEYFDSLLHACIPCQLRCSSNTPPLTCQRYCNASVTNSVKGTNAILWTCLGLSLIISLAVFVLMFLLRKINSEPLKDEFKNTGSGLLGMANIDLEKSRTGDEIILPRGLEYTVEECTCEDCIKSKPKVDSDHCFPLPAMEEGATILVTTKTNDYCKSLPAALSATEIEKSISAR
Experiment: cell binding, MFI against antibody concentration, panel title Bind to NCI-H929 cell

Binder	EC50 (read off the curve)
PR001035 (antibody, V domains shown, also called HCAb antibody PR001035; not shown: constant part (CH2 and CH3 regions of the Harbour HCAb format)) VH: EVQLVETGGGLIQPGGSLRLSCAASGFTVSSNYMTWVRQAPGKGLEWVSVIFSGGSTYYADSVKGRFTISRDNSKNTLYLQMNSLRAEDTAVYYCARRIAVAGHDVFDIWGQGTMVTVSS	~1 nM
PR000943 (antibody, V domains shown, also called HCAb antibody PR000943; not shown: constant part (CH2 and CH3 regions of the Harbour HCAb format)) VH: EVQLVETGGGLIQPGGSLRLSCAASGFPVSSNYMSWVRQAPGKGLEWVSVIFSGGRTYYADSVKGRFTISRDNSKNTLYLQMNSLRAEDTAVYYCARRNWIDGRDAFDIWGQGTMVTVSS	~4 nM
PR000274 (clone CA8-J6M0) (antibody, V domains shown) VH: QVQLVQSGAEVKKPGSSVKVSCKASGGTFSNYWMHWVRQAPGQGLEWMGATYRGHSDTYYNQKFKGRVTITADKSTSTAYMELSSLRSEDTAVYYCARGAIYDGYDVLDNWGQGTLVTVSS VL: DIQMTQSPSSLSASVGDRVTITCSASQDISNYLNWYQQKPGKAPKLLIYYTSNLHSGVPSRFSGSGSGTDFTLTISSLQPEDFATYYCQQYRKLPWTFGQGTKLEIKR	~10 nM
PR001046 (antibody, V domains shown, also called HCAb antibody PR001046; PR001046 VH-only human IgG1 test antibody; not shown: constant part (CH2 and CH3)) VH: EVQLVETGGGLIQPGGSLRLSCAASGFTVSDNYMTWVRQAPGKGLEWVSVIFSGGNTYYADSVKGRFTISRDNAKNTLYLQMNSLRAEDTALYYCARRNYDDTRGTDVFDIWGQGTMVTVSS	~2 nM
PR000940 (antibody, V domains shown, Heavy chain-only antibody from Harbour HCAb mice: dimer of two heavy chains, each with VH, CH2 and CH3; also called HCAb antibody PR000940; not shown: constant part (CH2 and CH3 regions of the Harbour HCAb format)) VH: EVQLLESGGGLVQPGGSLRLSCAASGFTFSSYAMIWVRQAPGKGLEWVSGISESGGSTYYADSVKGRFTISRDNSKNTLYLQMNSLRAEDTAVYFCVKDLDDILTGYYKDYWGQGTLVTVSS	~2 nM

Entry source: patent US20260152565A1
